# Tested on: CAL-39 (Other Solid Carcinomas)
# ASSAY_NOTES: combination Emax (second highest fraction inhibited in the dose matrix, 72 h); higher = more inhibition; extreme values may be limits of the assay
What combination Emax was measured for each of the following?

C[C@@H](Oc1cc(-c2cnn(C3CCNCC3)c2)cnc1N)c1c(Cl)ccc(F)c1Cl [Crizotinib] + Cn1cnc2c(F)c(Nc3ccc(Br)cc3Cl)c(C(=O)NOCCO)cc21 [Selumetinib] (first compound max 10 µM, 7x7, partner max 10 µM) ... 0.866
CN(CCO)CC[C@H](CSc1ccccc1)Nc1ccc(S(=O)(=O)NC(=O)c2ccc(N3CCC([C@@H](O)c4ccccc4-c4ccc(Cl)cc4)CC3)cc2)cc1S(=O)(=O)C(F)(F)F [AZD4320] + C[C@@H]1COCCN1C2=NC(=NC(=C2)C3(CC3)[S@](=N)(=O)C)C4=C5C=CNC5=NC=C4 [AZD6738] (first compound max 1 µM, 7x7, partner max 10 µM) ... 0.619

Would you kindly look at the next entry?
Exercise: Missing value: combination Emax, CAL-39 (Other Solid Carcinomas), entry Cc1c2c(nn1C)CSCc1cc(n(C)n1)CSc1cc(c3ccccc3c1)OCCCc1c(C(=O)O)n(C)c3c-2c(Cl)ccc13 [AZD5991] + CC(=O)O[C@H]1C(=O)[C@@]2(C)[C@H]([C@H](OC(=O)c3ccccc3)[C@]3(O)C[C@H](OC(=O)[C@H](O)[C@@H](NC(=O)c4ccccc4)c4ccccc4)C(C)=C1C3(C)C)[C@]1(OC(C)=O)CO[C@@H]1C[C@@H]2O [Paclitaxel] (first compound max 1 µM, 7x7, partner max 3 µM) . Fill in?
Solution: 0.994
